System: HOP-18
Experiment: NCI tumour cell line growth inhibition, 48 h
Calls of active or inactive are those of the source. Rule as the data show it: active = GI50 up to about 1.1 µM and inactive = higher.
The categories you may choose from are active, inactive

So what was the verdict on `Cc1ccc(C(=O)C#Cc2cnc(O)nc2O)cc1` in this test?
inactive

So what was the verdict on O=c1c2ccccc2nc(-c2ccccc2Cl)n1NC1OC(CO)C(O)C(O)C1O (configuration not stated) in this test?
inactive

So what was the verdict on COC(=O)C(=O)C(C(=O)C(=O)Nc1ccccc1[N+](=O)[O-])c1nc2ccc([N+](=O)[O-])cc2nc1O (configuration not stated) in this test?
inactive

So what was the verdict on COc1nc(NC2OC(COC(C)=O)C(OC(C)=O)C(OC(C)=O)C2OC(C)=O)c(/N=C/C=N/c2c(NC3OC(COC(C)=O)C(OC(C)=O)C(OC(C)=O)C3OC(C)=O)nc(OC)[nH]c2=O)c(=O)[nH]1 (configuration not stated) in this test?
inactive

So what was the verdict on `CN(C(=O)c1ccco1)C(=S)N1CCN(c2ccccc2)CC1` in this test?
inactive

So what was the verdict on `NCCc1ccc2oc3cc(=O)c4ccccc4c-3nc2c1` in this test?
active

So what was the verdict on CC(=O)OC(C)C1C2=C(C(=O)CC1(C)O)C(=O)c1c(ccc(-c3ccc4c(c3O)C(=O)C3=C(C4=O)C(C(C)OC(C)=O)C(C)(O)CC3=O)c1O)C2=O (configuration not stated) in this test?
active

So what was the verdict on `C/C(CN1C(=O)c2ccccc2C1=O)=N\NS(=O)(=O)c1cccc(C(=O)O)c1` in this test?
inactive

So what was the verdict on CC1COS(=O)N1c1ccccc1 (configuration not stated) in this test?
inactive

So what was the verdict on `C/C(=N\NS(=O)(=O)c1ccccc1)c1ccc[n+]([O-])n1` in this test?
inactive

So what was the verdict on `N#Cc1nc(Nc2ccc(Cl)cc2)sc1N` in this test?
inactive

So what was the verdict on Nc1nc(SCCC/C=C/B(O)O)nc2c1ncn2C1OC(COP(=O)(O)O)C(O)C1O (configuration not stated) in this test?
inactive

So what was the verdict on CC(=O)O[C@@H]1C2C(=O)OC(=O)C2C2CCC[C@]23O[C@H]13 (some centres not stated) in this test?
inactive

So what was the verdict on C=C1C(OC(=O)/C=C/c2ccccc2)CC(OC(C)=O)C2(C)C1CC1CC(OC(C)=O)C(C)=C(C(OC(C)=O)C2OC(C)=O)C1(C)C (configuration not stated) in this test?
inactive

So what was the verdict on C[N+](C)(C)CC1CCC/C1=N/O (configuration not stated) in this test?
inactive

So what was the verdict on `O=C1C[C@@H]2[C@@H](C=CC23CC3)N1O` in this test?
inactive

So what was the verdict on `CN(C)CCS/C(=N\c1ccccc1)n1cccc1` in this test?
inactive

So what was the verdict on C=CCc1ccc(O)c(-c2cc(C3Oc4c(-c5cc(CC=C)ccc5O)cc(O)cc4[C@@H]3CO)ccc2O)c1 (some centres not stated) in this test?
inactive

So what was the verdict on `NCCCNCCCCN(CCCN)/[N+]([O-])=N\O` in this test?
inactive

So what was the verdict on CCCCCNC(=O)C1C(=O)N(CCCCC)C(=O)/C1=N\N (configuration not stated) in this test?
inactive

So what was the verdict on `Cc1c2ccnc(C(N)=O)c2c(C)c2c1[nH]c1ccccc12` in this test?
inactive

So what was the verdict on CCC12C=CCN(CCc3c([nH]c4ccccc34)/C=C\1)C2 (configuration not stated) in this test?
inactive

###

Provide the recorded GI50 for the entries that follow.
Tested on: NCI-H226
Experiment: NCI tumour cell line growth inhibition, 48 h
Calls of active or inactive are those of the source. Cut-off read from the data, not from the text of the source: active = GI50 up to about 1.1 µM and inactive = higher.

Fill in the blank: the reported GI50 of Cc1ccc([N+](=O)[O-])cc1NC(=O)C(=O)C(C(=O)c1ccccc1F)C1OC(=O)c2ccccc21 (stereo not drawn) is ____.
16 µM (inactive)

Fill in the blank: the reported GI50 of `COc1ccccc1NC(=O)/C(=C/c1ccccc1)C(C)=O` is ____.
37.1 µM (inactive)

Fill in the blank: the reported GI50 of `N#Cc1c(-c2ccccc2)cn(C(=O)c2ccccc2)c1N` is ____.
> 100 µM (inactive)

Fill in the blank: the reported GI50 of `CCCCC1=C(C(=O)N2CCOCC2)C2(OCCO2)C1=O` is ____.
2.86 µM (inactive)

Fill in the blank: the reported GI50 of `Clc1cc(Cl)c2ns[s+]c2c1Cl` is ____.
> 100 µM (inactive)

Fill in the blank: the reported GI50 of `Oc1ccccc1/C=N/c1nc2cc3sc(/N=C/c4ccccc4O)nc3cc2s1` is ____.
26.4 µM (inactive)

Fill in the blank: the reported GI50 of `COC(CNC(=O)CNC(=O)c1ccc(C(F)(F)F)cc1)OC` is ____.
> 100 µM (inactive)

Fill in the blank: the reported GI50 of `COc1ccc(NC(=O)CC/C(CC(=O)c2ccccc2Cl)=N\Nc2nnc(C)n2N)cc1` is ____.
> 100 µM (inactive)

Fill in the blank: the reported GI50 of `CC(NC(=O)c1ccccc1)(C(=O)O)C(=O)O` is ____.
> 100 µM (inactive)

Fill in the blank: the reported GI50 of CC(=O)c1ccc2c(c1)CC1(C2)Cc2ccc3c(c2C1=O)CCC3 (stereo not drawn) is ____.
19 µM (inactive)

Fill in the blank: the reported GI50 of CC(NC(=N)N)C(=O)O (stereo not drawn) is ____.
> 100 µM (inactive)

Fill in the blank: the reported GI50 of `Cc1nc2c(nc1C)-c1c(c3c(n1C)C(=O)CCC3)C(=O)C2=O` is ____.
1.41 µM (inactive)

Fill in the blank: the reported GI50 of `COC(=O)CCC(=O)c1ccc2c(c1)CC1(Cc3ccccc3C1)C2` is ____.
24.7 µM (inactive)

Fill in the blank: the reported GI50 of `CCN(CC)C(=S)SS(=O)(=O)c1ccc(F)cc1` is ____.
> 100 µM (inactive)

Fill in the blank: the reported GI50 of `CC1(C)CC(=O)c2c(nc3c4c([nH]c(-c5ccc(Br)cc5)c24)CC(C)(C)C3)C1` is ____.
40.8 µM (inactive)

Fill in the blank: the reported GI50 of `CCCC/N=C(/c1ccccc1)N1CCOCC1` is ____.
> 100 µM (inactive)

Fill in the blank: the reported GI50 of CC1(C)COC2C(N(Cc3ccccc3)Cc3ccccc3)C(=O)N21 (stereo not drawn) is ____.
47.2 µM (inactive)

Fill in the blank: the reported GI50 of `CN(C)CCS/C(=N\c1ccccc1)n1cccc1` is ____.
22.3 µM (inactive)

Fill in the blank: the reported GI50 of `COC(=O)Cn1cnc2c(Cl)nc(Nc3ccccc3)nc21` is ____.
> 100 µM (inactive)

Fill in the blank: the reported GI50 of `C[C@]12CCC(=O)[C@@H](CCC3=CC(=O)C=CC3=O)[C@@H]1CCC2=O` is ____.
20.7 µM (inactive)

Fill in the blank: the reported GI50 of O=C(CC1(O)C(=O)Nc2c(Cl)ccc(Cl)c21)c1ccc(F)cc1 (stereo not drawn) is ____.
24.8 µM (inactive)

Fill in the blank: the reported GI50 of `COc1ccc2c(-c3ccc(O)cc3)c(Oc3ccccc3)c(=O)oc2c1` is ____.
29.9 µM (inactive)

Fill in the blank: the reported GI50 of CC1C(O)Oc2cc3c(cc2C1c1ccccc1O)OCO3 (stereo not drawn) is ____.
18.6 µM (inactive)

###

System: SR
Assay: NCI tumour cell line growth inhibition, 48 h
Active and inactive are the calls of the source. Rule as the data show it: active = GI50 up to about 1.1 µM and inactive = higher.
The categories you may choose from are active, inactive

So what was the verdict on OC(CC(O)(C(F)(F)F)C(F)(F)F)C(O)c1ccco1 (stereo unspecified) in this test?
inactive

So what was the verdict on `S=C(c1c[nH]c2ccccc12)N1CCN(c2ccccc2)CC1` in this test?
inactive

So what was the verdict on CC1(C)CC2C=C(C=O)C3(C=O)CC3(C)C2C1 (stereo unspecified) in this test?
active

So what was the verdict on C=C(Br)C(Br)(CCl)CCC(Cl)C(C)C.C=C(Cl)C(Br)(CCl)CCC(Cl)C(C)C (stereo unspecified) in this test?
active

So what was the verdict on C[N+]1(c2ccccc2)C=C(c2ccccc2)SC1=S (stereo unspecified) in this test?
inactive

So what was the verdict on C=CCC1C(=O)CC2(C)CC(=O)C(CC=C)C12C (stereo unspecified) in this test?
inactive

So what was the verdict on CC(C)C12CCC3(CCC4C(C)(C(=O)O)CCCC4(C)C3C1)C(CN)C2 (stereo unspecified) in this test?
inactive

So what was the verdict on `CSc1nc(SC)c2c(C#N)n[nH]c2n1` in this test?
inactive

So what was the verdict on O=C1CS(=O)(=O)C(c2cccc(Oc3ccccc3)c2)N1c1cccc(Cl)c1Cl (stereo unspecified) in this test?
inactive

So what was the verdict on `CC(C)(C)[Si](C)(C)OCc1cccc(OCCOc2cccc(CO[Si](C)(C)C(C)(C)C)c2[N+](=O)[O-])c1[N+](=O)[O-]` in this test?
inactive

So what was the verdict on `CCCCC1=C(C(=O)N2CCOCC2)C2(OCCO2)C1=O` in this test?
inactive
